Listed here are compounds together with their documented pKi.
SYSTEM_NAME: Kappa-type opioid receptor (Homo sapiens, UniProt P41145)
Sequence (P41145 whole entry): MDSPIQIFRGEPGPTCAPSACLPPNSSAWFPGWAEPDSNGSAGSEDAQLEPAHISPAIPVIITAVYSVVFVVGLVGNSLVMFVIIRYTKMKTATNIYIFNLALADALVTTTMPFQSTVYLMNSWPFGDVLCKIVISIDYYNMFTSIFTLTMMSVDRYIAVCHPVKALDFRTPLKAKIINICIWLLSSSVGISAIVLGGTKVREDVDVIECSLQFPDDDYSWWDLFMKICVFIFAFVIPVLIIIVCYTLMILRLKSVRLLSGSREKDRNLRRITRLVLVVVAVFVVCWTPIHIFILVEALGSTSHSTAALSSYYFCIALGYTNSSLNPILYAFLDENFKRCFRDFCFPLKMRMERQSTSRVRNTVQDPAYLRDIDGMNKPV
PROTOCOL_DESCRIPTION: Displacement of [3H]-U-69593 from recombinant human KOR expressed in CHO cell membranes measured after 2 hrs by microbeta scintillation counting method
When answering, recall that pKi equals minus log10 of the concentration in mol/L, and write that number alone.

Example entries and their recorded answers appear below.
- SUBSTANCE_SMILES: "CN(C(=O)Cc1ccccc1)[C@@H]1C[C@]23CCN(CC4CC4)[C@H](Cc4ccc(O)cc42)[C@]32CC[C@@H]1O2"
  pKi: 9.56
- SUBSTANCE_SMILES: "CN(C(=O)CCc1ccccc1)[C@@H]1C[C@]23CCN(CC4CC4)[C@H](Cc4ccc(O)cc42)[C@]32CC[C@@H]1O2"
  pKi: 9.48
- SUBSTANCE_SMILES: "O=C(CCc1ccccc1)N[C@@H]1C[C@]23CCN(CC4CC4)[C@H](Cc4ccc(O)cc42)[C@]32CC[C@@H]1O2"
  pKi: 9.71

IN: Return value of pKi for input CN(C(=O)c1ccccc1)[C@@H]1C[C@]23CCN(CC4CC4)[C@H](Cc4ccc(O)cc42)[C@]32CC[C@@H]1O2 , no commentary.
OUT: 9.59

IN: Give reported pKi value for O=C(Cc1ccccc1)N[C@@H]1C[C@]23CCN(CC4CC4)[C@H](Cc4ccc(O)cc42)[C@]32CC[C@@H]1O2
OUT: 9.71

###

SYSTEM_NAME: Delta-type opioid receptor (Homo sapiens, UniProt P41143)
Sequence (P41143 whole entry): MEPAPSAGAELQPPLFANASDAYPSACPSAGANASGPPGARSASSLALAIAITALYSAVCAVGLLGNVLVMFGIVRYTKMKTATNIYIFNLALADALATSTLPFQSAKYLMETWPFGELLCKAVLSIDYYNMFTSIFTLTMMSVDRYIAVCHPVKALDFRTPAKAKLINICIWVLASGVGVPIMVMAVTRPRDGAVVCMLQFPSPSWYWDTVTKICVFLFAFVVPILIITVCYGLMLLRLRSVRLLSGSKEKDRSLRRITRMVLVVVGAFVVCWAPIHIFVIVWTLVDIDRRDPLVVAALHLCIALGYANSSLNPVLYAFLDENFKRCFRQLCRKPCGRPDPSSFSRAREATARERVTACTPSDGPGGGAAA
PROTOCOL_DESCRIPTION: Displacement of [3H]-DPDPE from recombinant human DOR expressed in CHO cell membranes measured after 2 hrs by microbeta scintillation counting method
Threshold check on Ki: strictly below 6 nM is yes; on or above 6 nM is no.

Consider the worked cases shown below.
- SUBSTANCE_SMILES: "O=C(CCc1ccccc1)N[C@@H]1C[C@]23CCN(CC4CC4)[C@H](Cc4ccc(O)cc42)[C@]32CC[C@@H]1O2"
  SYSTEM_NAME: "Delta-type opioid receptor (Homo sapiens, UniProt P41143)"
  QUALITATIVE_LABEL: "yes"
- SUBSTANCE_SMILES: "CN(C(=O)c1ccccc1)[C@@H]1C[C@]23CCN(CC4CC4)[C@H](Cc4ccc(O)cc42)[C@]32CC[C@@H]1O2"
  SYSTEM_NAME: "Delta-type opioid receptor (Homo sapiens, UniProt P41143)"
  QUALITATIVE_LABEL: "no"
- SUBSTANCE_SMILES: "O=C(Cc1ccccc1)N[C@H]1C[C@]23CCN(CC4CC4)[C@H](Cc4ccc(O)cc42)[C@]32CC[C@@H]1O2"
  SYSTEM_NAME: "Delta-type opioid receptor (Homo sapiens, UniProt P41143)"
  QUALITATIVE_LABEL: "yes"
- SUBSTANCE_SMILES: "O=C(N[C@H]1C[C@]23CCN(CC4CC4)[C@H](Cc4ccc(O)cc42)[C@]32CC[C@@H]1O2)c1ccccc1"
  SYSTEM_NAME: "Delta-type opioid receptor (Homo sapiens, UniProt P41143)"
  QUALITATIVE_LABEL: "yes"
- SUBSTANCE_SMILES: "CN(C(=O)CCc1ccccc1)[C@@H]1C[C@]23CCN(CC4CC4)[C@H](Cc4ccc(O)cc42)[C@]32CC[C@@H]1O2"
  SYSTEM_NAME: "Delta-type opioid receptor (Homo sapiens, UniProt P41143)"
  QUALITATIVE_LABEL: "no"
- SUBSTANCE_SMILES: "O=C(CCc1ccccc1)N[C@H]1C[C@]23CCN(CC4CC4)[C@H](Cc4ccc(O)cc42)[C@]32CC[C@@H]1O2"
  SYSTEM_NAME: "Delta-type opioid receptor (Homo sapiens, UniProt P41143)"
  QUALITATIVE_LABEL: "yes"
- SUBSTANCE_SMILES: "O=C(Cc1ccccc1)N[C@@H]1C[C@]23CCN(CC4CC4)[C@H](Cc4ccc(O)cc42)[C@]32CC[C@@H]1O2"
  SYSTEM_NAME: "Delta-type opioid receptor (Homo sapiens, UniProt P41143)"
  QUALITATIVE_LABEL: "yes"
- SUBSTANCE_SMILES: "O=C(N[C@@H]1C[C@]23CCN(CC4CC4)[C@H](Cc4ccc(O)cc42)[C@]32CC[C@@H]1O2)c1ccccc1"
  SYSTEM_NAME: "Delta-type opioid receptor (Homo sapiens, UniProt P41143)"
  QUALITATIVE_LABEL: "yes"

Here is another compound to look at.
IN: Decide: Ki of CN(C(=O)Cc1ccccc1)[C@@H]1C[C@]23CCN(CC4CC4)[C@H](Cc4ccc(O)cc42)[C@]32CC[C@@H]1O2 strictly below 6 nM?
OUT: no

###

Attribute: pEC50
SYSTEM_NAME: Kappa-type opioid receptor (Homo sapiens)
PROTOCOL_DESCRIPTION: Agonist activity at human kappa opioid receptor expressed in CHO cell membranes assessed as stimulation of [35S]GTPgammaS binding incubated for 2 hrs by scintillation counting method
// pEC50: -log10(molar conc.)

Use the examples below as a reference point.
- SUBSTANCE_SMILES: "CN(C(=O)CCc1ccccc1)[C@@H]1C[C@]23CCN(CC4CC4)[C@H](Cc4ccc(O)cc42)[C@]32CC[C@@H]1O2"
  pEC50: 8.00
- SUBSTANCE_SMILES: "CN(C(=O)c1ccccc1)[C@@H]1C[C@]23CCN(CC4CC4)[C@H](Cc4ccc(O)cc42)[C@]32CC[C@@H]1O2"
  pEC50: 8.80
- SUBSTANCE_SMILES: "O=C(N[C@@H]1C[C@]23CCN(CC4CC4)[C@H](Cc4ccc(O)cc42)[C@]32CC[C@@H]1O2)c1ccccc1"
  pEC50: 8.74
- SUBSTANCE_SMILES: "O=C(CCc1ccccc1)N[C@H]1C[C@]23CCN(CC4CC4)[C@H](Cc4ccc(O)cc42)[C@]32CC[C@@H]1O2"
  pEC50: 8.20

IN: Read the entry CN(C(=O)Cc1ccccc1)[C@@H]1C[C@]23CCN(CC4CC4)[C@H](Cc4ccc(O)cc42)[C@]32CC[C@@H]1O2 and write its reported pEC50.
OUT: 8.07

IN: Check the records and state pEC50 for O=C(Cc1ccccc1)N[C@@H]1C[C@]23CCN(CC4CC4)[C@H](Cc4ccc(O)cc42)[C@]32CC[C@@H]1O2
OUT: 8.51

IN: Identify measured pEC50 corresponding to O=C(N[C@H]1C[C@]23CCN(CC4CC4)[C@H](Cc4ccc(O)cc42)[C@]32CC[C@@H]1O2)c1ccccc1
OUT: 7.49

IN: Name the recorded pEC50 of the compound listed here: O=C(CCc1ccccc1)N[C@@H]1C[C@]23CCN(CC4CC4)[C@H](Cc4ccc(O)cc42)[C@]32CC[C@@H]1O2
OUT: 8.27

IN: Please report pEC50 for the following compound: O=C(Cc1ccccc1)N[C@H]1C[C@]23CCN(CC4CC4)[C@H](Cc4ccc(O)cc42)[C@]32CC[C@@H]1O2
OUT: 7.87

###

SYSTEM_NAME: mu opioid receptor (MOR) (Homo sapiens)
Sequence (P35372 whole entry): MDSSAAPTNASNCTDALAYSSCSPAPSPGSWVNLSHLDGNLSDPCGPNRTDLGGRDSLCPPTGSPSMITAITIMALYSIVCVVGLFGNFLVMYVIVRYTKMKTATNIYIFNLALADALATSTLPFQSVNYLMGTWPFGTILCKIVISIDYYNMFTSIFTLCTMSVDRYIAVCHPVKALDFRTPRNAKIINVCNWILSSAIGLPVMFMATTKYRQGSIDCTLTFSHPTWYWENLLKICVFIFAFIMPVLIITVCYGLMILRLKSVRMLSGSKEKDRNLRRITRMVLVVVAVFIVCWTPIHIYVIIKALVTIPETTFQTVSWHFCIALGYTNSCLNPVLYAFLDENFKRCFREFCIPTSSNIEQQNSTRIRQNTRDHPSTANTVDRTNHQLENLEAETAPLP
PROTOCOL_DESCRIPTION: Agonist activity at human mu opioid receptor expressed in CHO cell membranes assessed as stimulation of [35S]GTPgammaS binding incubated for 2 hrs by scintillation counting method relative to DAMGO
Set-up: species or system Membrane
CONDITION: CHO cell membranes expressing human mu opioid receptor, probe [35S]GTPgammaS
OBSERVABLE: Emax at 2 h (%)
Dear colleague, please return just the value in %, with no unit written.

See these solved cases before continuing.
- SUBSTANCE_SMILES: "O=C(CCc1ccccc1)N[C@H]1C[C@]23CCN(CC4CC4)[C@H](Cc4ccc(O)cc42)[C@]32CC[C@@H]1O2"
  Emax at 2 h, %: 11.4
- SUBSTANCE_SMILES: "O=C(Cc1ccccc1)N[C@@H]1C[C@]23CCN(CC4CC4)[C@H](Cc4ccc(O)cc42)[C@]32CC[C@@H]1O2"
  Emax at 2 h, %: 28.2
- SUBSTANCE_SMILES: "O=C(CCc1ccccc1)N[C@@H]1C[C@]23CCN(CC4CC4)[C@H](Cc4ccc(O)cc42)[C@]32CC[C@@H]1O2"
  Emax at 2 h, %: 10.2

IN: For the compound O=C(Cc1ccccc1)N[C@H]1C[C@]23CCN(CC4CC4)[C@H](Cc4ccc(O)cc42)[C@]32CC[C@@H]1O2 , give its measured Emax at 2 h value.
OUT: 8.7

IN: # return recorded Emax at 2 h for entry CN(C(=O)Cc1ccccc1)[C@@H]1C[C@]23CCN(CC4CC4)[C@H](Cc4ccc(O)cc42)[C@]32CC[C@@H]1O2
OUT: 40.3

IN: Return value of Emax at 2 h for input CN(C(=O)c1ccccc1)[C@@H]1C[C@]23CCN(CC4CC4)[C@H](Cc4ccc(O)cc42)[C@]32CC[C@@H]1O2 , no commentary.
OUT: 47.5

IN: Please give the documented Emax at 2 h of CN(C(=O)CCc1ccccc1)[C@@H]1C[C@]23CCN(CC4CC4)[C@H](Cc4ccc(O)cc42)[C@]32CC[C@@H]1O2
OUT: 33.4

IN: For the compound O=C(N[C@@H]1C[C@]23CCN(CC4CC4)[C@H](Cc4ccc(O)cc42)[C@]32CC[C@@H]1O2)c1ccccc1 , give its reported Emax at 2 h.
OUT: 47.2
